Provenance of the data: the nanobody polyreactivity screen of Harvey et al. (2022)

- Test description: yeast display, Sf9 membrane polyspecificity reagent, FACS + sequencing; frameworks hold sequencing errors
Value kind: polyreactivity (PSR sort gate)

QVQLVESGGGLVQAGGSLRLSCAASGSIFYKYGMGWYRQAPGKVRVLVAAIRASGDSTYYADSVKGRFTISRDNAKNTVYLQMNSQKPEDTAVYYCAARPNQSYYGLYYYWGQGTQVTVSS ... low polyreactivity
QVQLVESAGGLVQAGGSLRLSCAASGRIFRSNAMGWYRQAPGQERELVAAINNRDTSTYADSVKGRFTISRDNAKNTVYLQMNSLKPEDTAVFYCAARYQYYSTYGVTLDYWGQGSQVTVSS ... low polyreactivity
